These measurements were taken from patent US20250018014A1.

biological target: FL_Reg1 (full-length human Regnase-1) phosphorylation by TBK1 (Homo sapiens); construct: made in house; host or cells: Expi293 cells; experiment: Regnase-1 phosphorylation inhibition by compounds (AlphaScreen), TBK1, full-length Regnase-1; format: biochemical; conditions: Table 11; 2 nM Regnase-1; AlphaScreen; read-out: 50% inhibition concentration, Regnase-1 phosphorylation, FL_Reg1, TBK1
Sequence (Q5D1E8 whole entry): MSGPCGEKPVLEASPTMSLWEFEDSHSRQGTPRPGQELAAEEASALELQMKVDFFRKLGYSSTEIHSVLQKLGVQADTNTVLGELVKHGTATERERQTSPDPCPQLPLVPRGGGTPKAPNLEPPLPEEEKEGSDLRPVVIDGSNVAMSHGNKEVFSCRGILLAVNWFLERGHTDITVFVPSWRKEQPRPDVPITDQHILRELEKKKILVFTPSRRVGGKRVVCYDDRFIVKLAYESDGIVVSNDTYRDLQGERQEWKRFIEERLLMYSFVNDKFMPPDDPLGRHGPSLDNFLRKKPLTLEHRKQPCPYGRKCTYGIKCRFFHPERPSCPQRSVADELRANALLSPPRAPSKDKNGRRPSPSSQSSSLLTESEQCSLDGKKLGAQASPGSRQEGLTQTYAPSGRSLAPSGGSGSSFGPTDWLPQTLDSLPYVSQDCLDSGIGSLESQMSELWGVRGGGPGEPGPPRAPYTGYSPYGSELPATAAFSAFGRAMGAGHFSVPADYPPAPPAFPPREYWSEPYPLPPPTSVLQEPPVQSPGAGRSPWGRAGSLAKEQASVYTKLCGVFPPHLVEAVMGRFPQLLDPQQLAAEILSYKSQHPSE
Residues, ends and D or L forms follow the SMILES beside them.
ATTRIBUTE_MEASURED: pIC50
Hey, just a heads up that pIC50 is the negative log base 10 of the concentration in molar.

# annotated cases, reported pIC50 shown
MOLECULE	pIC50
CC[C@H](C)[C@@H]1NC(=O)[C@H](CCCNC(=N)N)NC(=O)[C@H](Cc2ccc(O)cc2)NC(=O)[C@H](Cc2c[nH]c3ccccc23)NC(=O)[C@H](C)NC(=O)[C@H](CO)NC(=O)[C@H](C)NC(=O)[C@H](Cc2c[nH]cn2)NC(=O)[C@H](CCCCN)NC(=O)[C@@H](C)N(C)C(=O)C[C@@H](C(=O)N2CCCC2)NC(=O)[C@H](Cc2c[nH]c3ccccc23)NC1=O [PP3] (HELM PEPTIDE1{[C[C@H](C(=O)[*:2])N(C)[*:1]].K.H.A.S.A.W.Y.R.I.W.D.[C1CCN([*:1])C1]}$PEPTIDE1,PEPTIDE1,1:R1-12:R3$$$V2.0)	5.41
CC[C@H](C)[C@@H]1NC(=O)[C@H](CC(N)=O)NC(=O)[C@H](Cc2ccc(O)cc2)NC(=O)[C@H](Cc2c[nH]c3ccccc23)NC(=O)[C@H](C)NC(=O)[C@H](CC(N)=O)NC(=O)[C@H](CO)NC(=O)[C@H](Cc2c[nH]cn2)NC(=O)[C@H](C)N(C)C(=O)C[C@@H](C(=O)N2CCCC2)NC(=O)[C@H](Cc2c[nH]c3ccccc23)NC1=O [PP5] (HELM PEPTIDE1{[meA].H.S.N.A.W.Y.N.I.W.D.[C1CCN([*:1])C1]}$PEPTIDE1,PEPTIDE1,1:R1-11:R3$$$V2.0)	4.62

Switching to the query record.
GET /values?readout=pIC50&item= CC[C@H](C)[C@@H]1NC(=O)[C@H](CCCCN)NC(=O)[C@H](Cc2ccccc2)NC(=O)[C@H](Cc2c[nH]c3ccccc23)NC(=O)[C@H](CO)NC(=O)[C@H](CO)NC(=O)[C@H](CC(N)=O)NC(=O)[C@@H]2CCCN2C(=O)[C@@H](C)N(C)C(=O)C[C@@H](C(=O)N2CCCC2)NC(=O)[C@H](Cc2c[nH]c3ccccc23)NC1=O [PP6] (HELM PEPTIDE1{[C[C@H](C(=O)[*:2])N(C)[*:1]].P.N.S.S.W.F.K.I.W.D.[C1CCN([*:1])C1]}$PEPTIDE1,PEPTIDE1,1:R1-11:R3$$$V2.0)
4.88
